# reported percent inhibition, PC-3 ML (Prostrate); entries follow
System: PC-3 ML human prostate cancer cells
experimentalProtocol: Membrane Invasion Culture System (MICS) chemo-invasion assay
Format: cell-based
conditionNotes: 1 ug/mL; 24 hours; + = increased invasiveness

CC(=O)Nc1cc(N(C)C)c2c(c1O)C(=O)C1=C(O)C3(O)C(=O)C(C(N)=O)=C(O)C(N(C)C)C3CC1C2 (stereo not drawn) :: 0%
CC1c2ccc(C(C)(C)C)c(O)c2C(=O)C2=C(O)C3(O)C(=O)C(C(N)=O)=C(O)C(N(C)C)C3C(O)C21 (stereo not drawn) :: 44^B percent

Item under review: CN(C)[C@@H]1C(=O)C(C(N)=O)=C(O)[C@@]2(O)C(=O)C3=C(O)c4c(O)cccc4C[C@H]3C[C@@H]12.Cl [Compound 53, 6-Demethyl-6-deoxytetracycline HCl] . Reported percent inhibition, PC-3 ML (Prostrate)?
29^B percent

----------
systemTested: Human recombinant MMP14 (Homo sapiens, UniProt P50281)
experimentalProtocol: MMP14 (MTI-MMP) inhibition, 14C collagen release
conditionNotes: 35° C., 15 hours; read-out: MMP-14 inhibitory activity, IC50
assayEndpoint: pIC50
Keep in mind that pIC50 stands for -log10 of concentration in molar terms.

CC1c2c(N)cc([N+](=O)[O-])c(O)c2C(=O)C2=C(O)C3(O)C(=O)C(C(N)=O)=C(O)C(N(C)C)C3C(O)C21 (stereo not shown) [Compound 14] :: 3.41
CC1c2cccc(O)c2C(=O)C2=C(O)C3(O)C(=O)C(C(N)=O)=C(O)C([N+](C)(C)C)C3C(O)C21.[I-] (stereo not shown) [Compound 46] :: 4.05
CCCN(CCC)c1ccc(O)c2c1C(C)C1C(=C(O)C3(O)C(=O)C(C(N)=O)=C(O)C(N(C)C)C3C1O)C2=O (stereo not shown) [Compound 24] :: 3.80
CCCCCCN(CCCCCC)c1ccc(O)c2c1C(C)C1C(=C(O)C3(O)C(=O)C(C(N)=O)=C(O)C(N(C)C)C3C1O)C2=O (stereo not shown) [Compound 18] :: 3.99
CN(C)C1C(O)=C(C(N)=O)C(=O)C2(O)C(O)=C3C(=O)c4c(O)c(Br)cc(Br)c4CC3CC12 (stereo not shown) [Compound 13] :: 4.85

Item under review: CC1c2ccc(N=[N+]=[N-])c(O)c2C(=O)C2=C(O)C3(O)C(=O)C(C(N)=O)=C(O)C(N(C)C)C3C(O)C21 (stereo not shown) [Compound 6] . Reported pIC50?
4.25

----------
systemTested: Human recombinant MMP14 (Homo sapiens)
experimentalProtocol: MMP14 (MTI-MMP) inhibition, 14C collagen release
conditionNotes: 35° C., 15 hours; read-out: MMP-14 inhibitory activity, IC50
# reported pIC50; entries follow
Keep in mind that pIC50 stands for -log10 of concentration in molar terms.

Here are 2 compounds together with their reported answers.
CC1c2ccc([N+](=O)[O-])c(O)c2C(=O)C2=C(O)C3(O)C(=O)C(C(N)=O)=C(O)C(N(C)C)C3C(O)C21 (stereo not drawn) [Compound 1] :: 4.07
CC1c2c(N(NC(=O)OCc3ccccc3)C(=O)OCc3ccccc3)ccc(O)c2C(=O)C2=C(O)C3(O)C(=O)C(C(N)=O)=C(O)C(N(C)C)C3C(O)C21.Cl (stereo not drawn) [Compound 47, HCl] :: 4.22

Item under review: CC(C)CN(C)c1ccc(O)c2c1C(C)C1C(=C(O)C3(O)C(=O)C(C(N)=O)=C(O)C(N(C)C)C3C1O)C2=O (stereo not drawn) [Compound 27] . Reported pIC50?
4.04

----------
systemTested: MMP2 (Gelatinase A) (Homo sapiens)
Sequence (P08253 110-660): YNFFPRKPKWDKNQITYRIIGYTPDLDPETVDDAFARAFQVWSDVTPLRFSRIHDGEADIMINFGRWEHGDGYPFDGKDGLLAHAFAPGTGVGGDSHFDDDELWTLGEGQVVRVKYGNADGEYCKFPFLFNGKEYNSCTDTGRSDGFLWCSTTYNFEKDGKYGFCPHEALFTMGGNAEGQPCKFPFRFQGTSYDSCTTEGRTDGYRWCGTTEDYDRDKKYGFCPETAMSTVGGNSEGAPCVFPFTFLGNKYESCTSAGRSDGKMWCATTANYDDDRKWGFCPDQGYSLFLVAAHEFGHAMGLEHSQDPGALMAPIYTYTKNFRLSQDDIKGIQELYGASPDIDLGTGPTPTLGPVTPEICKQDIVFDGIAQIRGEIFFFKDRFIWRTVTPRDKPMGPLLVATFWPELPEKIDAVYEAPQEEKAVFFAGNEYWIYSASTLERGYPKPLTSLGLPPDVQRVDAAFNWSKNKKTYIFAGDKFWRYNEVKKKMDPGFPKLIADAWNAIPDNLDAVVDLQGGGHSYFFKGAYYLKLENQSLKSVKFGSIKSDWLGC
Structures can show the parent of a compound that is named as a salt.
assayEndpoint: log10 of IC50 (log10 of the value in µM)
Scale: decimal log of IC50, IC50 in µM.

Here are 10 molecules together with their reported answers.
CC1c2c(N)cc(C(C)(C)C)c(O)c2C(=O)C2=C(O)C3(O)C(=O)C(C(N)=O)=C(O)CC3C(O)C21.O=S(=O)(O)O (stereo not shown) :: 3.20
CC1c2c(N=[N+]=[N-])cc(C(C)(C)C)c(O)c2C(=O)C2=C(O)C3(O)C(=O)C(C(N)=O)=C(O)C(N(C)C)C3C(O)C21 (stereo not shown) :: 3.39
CC1c2c(N(CCC(C)(C)C)CCC(C)(C)C)ccc(O)c2C(=O)C2=C(O)C3(O)C(=O)C(C(N)=O)=C(O)C(N(C)C)C3C(O)C21 (stereo not shown) :: 2.97
CC(=O)Nc1cc(N=[N+]=[N-])c(O)c2c1C(C)C1C(=C(O)C3(O)C(=O)C(C(N)=O)=C(O)C(N(C)C)C3C1O)C2=O (stereo not shown) :: 2.78
CN(C)c1cc([N+]#N)c(O)c2c1CC1CC3C(N(C)C)C(O)=C(C(N)=O)C(=O)C3(O)C(O)=C1C2=O (stereo not shown) [Compound 9, HCL] :: 2.53
CC(=O)Nc1ccc(O)c2c1C(C)C1C(=C(O)C3(O)C(=O)C(C(N)=O)=C(O)C(N(C)C)C3C1O)C2=O (stereo not shown) :: 2.49
CCCN(CCC)c1ccc(O)c2c1C(C)C1C(=C(O)C3(O)C(=O)C(C(N)=O)=C(O)C(N(C)C)C3C1O)C2=O (stereo not shown) :: 2.86
CC(=O)N(CC(C)C)c1ccc(O)c2c1C(C)C1C(=C(O)C3(O)C(=O)C(C(N)=O)=C(O)C(N(C)C)C3C1O)C2=O.O=S(=O)(O)O (stereo not shown) :: 2.99
CC1c2c(N(NC(=O)OCc3ccccc3)C(=O)OCc3ccccc3)ccc(O)c2C(=O)C2=C(O)C3(O)C(=O)C(C(N)=O)=C(O)C(N(C)C)C3C(O)C21.Cl (stereo not shown) [Compound 47, HCl] :: 2.07
CC(=O)Nc1cc(N(C)C)c2c(c1O)C(=O)C1=C(O)C3(O)C(=O)C(C(N)=O)=C(O)C(N(C)C)C3CC1C2 (stereo not shown) :: 2.78

// lookup log10 of IC50 | system=MMP2 (Gelatinase A) (Homo sapiens) | key= CC(=O)Nc1cc([N+](=O)[O-])c(O)c2c1C(C)C1C(=C(O)C3(O)C(=O)C(C(N)=O)=C(O)C(N(C)C)C3C1O)C2=O (stereo not shown)
2.40

// lookup log10 of IC50 | system=MMP2 (Gelatinase A) (Homo sapiens) | key= CC(C)CNc1ccc(O)c2c1C(C)C1C(=C(O)C3(O)C(=O)C(C(N)=O)=C(O)C(N(C)C)C3C1O)C2=O (stereo not shown)
2.60

----------
systemTested: Human recombinant MMP3 (Homo sapiens, UniProt P08254)
Sequence (P08254 100-477): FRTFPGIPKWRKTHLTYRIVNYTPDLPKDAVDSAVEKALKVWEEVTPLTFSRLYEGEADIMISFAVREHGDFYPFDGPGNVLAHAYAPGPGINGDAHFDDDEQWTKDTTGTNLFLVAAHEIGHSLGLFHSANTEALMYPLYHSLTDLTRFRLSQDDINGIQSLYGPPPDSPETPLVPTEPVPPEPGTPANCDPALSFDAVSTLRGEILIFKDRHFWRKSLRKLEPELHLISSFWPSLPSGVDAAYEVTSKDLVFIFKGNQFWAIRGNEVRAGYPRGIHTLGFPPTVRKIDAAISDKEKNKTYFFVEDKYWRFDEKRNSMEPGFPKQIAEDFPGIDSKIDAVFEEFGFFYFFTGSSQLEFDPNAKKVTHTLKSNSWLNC
experimentalProtocol: MMP3 (Stromelysin 1) inhibition, 14C casein release
conditionNotes: 37° C., 16 hours; read-out: MMP-3 inhibitory activity, IC50
assayEndpoint: pIC50
Keep in mind that pIC50 stands for -log10 of concentration in molar terms.

CC1c2c(N)cc(C(C)(C)C)c(O)c2C(=O)C2=C(O)C3(O)C(=O)C(C(N)=O)=C(O)C(N(C)C)C3C(O)C21 (stereo not drawn) :: 3.65

Item under review: CC1c2c(N(CCC(C)(C)C)CCC(C)(C)C)ccc(O)c2C(=O)C2=C(O)C3(O)C(=O)C(C(N)=O)=C(O)C(N(C)C)C3C(O)C21 (stereo not drawn) . Reported pIC50?
3.40

Item under review: CC1c2c([N+](=O)[O-])cc(C(C)(C)C)c(O)c2C(=O)C2=C(O)C3(O)C(=O)C(C(N)=O)=C(O)CC3C(O)C21 (stereo not drawn) . Reported pIC50?
4.04

Item under review: CC1c2c(N=[N+]=[N-])ccc(O)c2C(=O)C2=C(O)C3(O)C(=O)C(C(N)=O)=C(O)C(N(C)C)C3C(O)C21 (stereo not drawn) . Reported pIC50?
3.55

Item under review: CC(=O)Nc1cc([N+]#N)c(O)c2c1C(C)C1C(=C(O)C3(O)C(=O)C(C(N)=O)=C(O)C(N(C)C)C3C1O)C2=O (stereo not drawn) . Reported pIC50?
3.03

----------
systemTested: Human recombinant MMP9 (Homo sapiens, UniProt P14780)
Sequence (P14780 94-707): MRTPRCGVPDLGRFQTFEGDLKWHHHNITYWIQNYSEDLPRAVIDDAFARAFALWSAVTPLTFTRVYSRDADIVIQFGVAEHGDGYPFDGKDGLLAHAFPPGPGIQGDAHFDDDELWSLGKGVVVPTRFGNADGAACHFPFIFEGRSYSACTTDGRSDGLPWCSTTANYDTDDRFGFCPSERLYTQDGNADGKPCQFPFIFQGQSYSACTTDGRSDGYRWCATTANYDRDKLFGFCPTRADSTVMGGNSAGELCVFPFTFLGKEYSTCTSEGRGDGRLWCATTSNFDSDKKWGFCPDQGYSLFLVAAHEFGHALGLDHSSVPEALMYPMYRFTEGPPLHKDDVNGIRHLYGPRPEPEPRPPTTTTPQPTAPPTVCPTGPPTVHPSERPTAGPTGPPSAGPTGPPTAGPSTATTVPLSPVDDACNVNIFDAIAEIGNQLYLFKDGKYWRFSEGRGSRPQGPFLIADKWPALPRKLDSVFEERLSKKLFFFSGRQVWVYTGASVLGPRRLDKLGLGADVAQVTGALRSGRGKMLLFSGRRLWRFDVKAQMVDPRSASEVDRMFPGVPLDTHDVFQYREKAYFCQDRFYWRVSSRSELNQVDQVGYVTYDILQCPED
experimentalProtocol: MMP9 (Gelatinase B) inhibition, 14C gelatin release
conditionNotes: 37° C., 16 hours; read-out: MMP-9 inhibitory activity, IC50
Doc: threshold 100 µM (exclusive). Items with IC50 beneath it return Met; others return Not met.

# example entries with known answers
CC1c2c([N+]#N)ccc(O)c2C(=O)C2=C(O)C3(O)C(=O)C(C(N)=O)=C(O)C(N(C)C)C3C(O)C21 (stereo not drawn) :: Met
C[C@H]1c2c(N(C)C)cc([N+]#N)c(O)c2C(=O)C2=C(O)[C@]3(O)C(=O)C(C(N)=O)=C(O)[C@@H](N(C)C)[C@@H]3[C@@H](O)[C@@H]21 :: Not met
CC(=O)OC1C2C(=C(O)C3(O)C(=O)C(C(N)=O)=C(O)C(N(C)C)C13)C(=O)c1c(O)cccc1C2C (stereo not drawn) :: Not met
CCCN(CCC)c1ccc(O)c2c1C(C)C1C(=C(O)C3(O)C(=O)C(C(N)=O)=C(O)C(N(C)C)C3C1O)C2=O (stereo not drawn) :: Not met
CC(=O)Nc1cc(N)c(O)c2c1C(C)C1C(=C(O)C3(O)C(=O)C(C(N)=O)=C(O)C(N(C)C)C3C1O)C2=O (stereo not drawn) :: Not met

Strictly below 100 µM: is that where IC50 of CC(=O)Nc1ccc2c(c1O)C(=O)C1=C(O)C3(O)C(=O)C(C(N)=O)=C(O)C(N(C)C)C3C(O)C1C2C (stereo not drawn) sits?
Not met
